experiment: pharmacokinetic assay in SD rats (PO, IP, IV); format: in vivo; conditions: male, rat, plasma, IP 5 mg kg−1, read-out: AUC 0–24 h
result type: AUC(0-t) (ng·h/mL)

In [3]: df
Out[3]:
                                chem_smiles  quantitative_readout
0  CN1CCN(CCCCCN2c3cc(Cl)ccc3Sc3cccnc32)CC1                  9.01
1  Clc1ccc2c(c1)N(CCCCCN1CCC3(CCCCC3)CC1)c1ncccc1S2                   140

====

assay: pharmacokinetic assay in SD rats (PO, IP, IV); type: in vivo; conditions: male, rat, plasma, IP 5 mg kg−1, read-out: AUC 24 h−∞
result type: AUC(0-inf) (ng·h/mL)

In [3]: df
Out[3]:
                                   compound  result_type  quantitative_readout
0  CN1CCN(CCCCCN2c3cc(Cl)ccc3Sc3cccnc32)CC1 [JX57]   AUC(0-inf)                  14.2
1  Clc1ccc2c(c1)N(CCCCCN1CCC3(CCCCC3)CC1)c1ncccc1S2 [JX66]   AUC(0-inf)                   170

====

experiment: pharmacokinetic assay in SD rats (PO, IP, IV); type: in vivo; conditions: male, rat, plasma, PO 10 mg kg−1, read-out: AUC 24 h−∞
result type: AUC(0-inf) (µg·h/mL)

                                chem_smiles  quantitative_readout
0  CN1CCN(CCCCCN2c3cc(Cl)ccc3Sc3cccnc32)CC1                0.0557

====

test: pharmacokinetic assay in SD rats (PO, IP, IV); assay type: in vivo; conditions: male, rat, plasma, IP 5 mg kg−1
result type: Tmax (h)

In [3]: df
Out[3]:
                                chem_smiles  endpoint_unit  quantitative_readout
0  Clc1ccc2c(c1)N(CCCCCN1CCC3(CCCCC3)CC1)c1ncccc1S2              h                  1.67
1  CN1CCN(CCCCCN2c3cc(Cl)ccc3Sc3cccnc32)CC1              h                  0.33

====

Parameter Cmax: see the listing below.
assay: pharmacokinetic assay in SD rats (PO, IP, IV); format: in vivo; details: male, rat, plasma, PO 10 mg kg−1
result type: Cmax (ng/mL)

>>> df
                                   compound  result_type  quantitative_readout
0  Clc1ccc2c(c1)N(CCCCCN1CCC3(CCCCC3)CC1)c1ncccc1S2 [JX66]         Cmax                   3.8
1  CN1CCN(CCCCCN2c3cc(Cl)ccc3Sc3cccnc32)CC1 [JX57]         Cmax                  11.3

====

assay: plasma protein binding using equilibrium dialysis; format: in vitro ADME
result type: fraction unbound

In [3]: df
Out[3]:
                                   molecule  quantitative_readout
0  CN(C)CCCN1c2ccccc2Sc2ccc(Cl)cc21 [CPZ, chlorpromazine]                0.0156

====

assay: pharmacokinetic assay in SD rats (PO, IP, IV); format: in vivo; conditions: male, rat, plasma, IP 5 mg kg−1
result type: half-life (h)

                                chem_smiles  quantitative_readout
0  Clc1ccc2c(c1)N(CCCCCN1CCC3(CCCCC3)CC1)c1ncccc1S2                  10.1
1  CN1CCN(CCCCCN2c3cc(Cl)ccc3Sc3cccnc32)CC1                  3.06
